- measurementTarget: Jun bZIP R259A;Fos bZIP R158A (human;human, UniProt P05412;P01100 252-315;137-200, R259A|R158A)
- Sequence (P05412 252-315 R259A, chain 1 of 2): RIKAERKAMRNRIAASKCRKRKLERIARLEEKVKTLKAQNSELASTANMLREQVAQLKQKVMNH
- Sequence (P01100 137-200 R158A, chain 2 of 2): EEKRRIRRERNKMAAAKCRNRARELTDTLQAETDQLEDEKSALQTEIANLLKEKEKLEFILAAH
- assayText: ITC
measure: pKd
Here pKd is given on a logarithmic scale as minus log10 of the concentration in mol/L.

Data request: // query pKd value for entry TRE duplex 15-mer (dsDNA) DNA 1: CGCGTGACTCACCCC DNA 2: GGGGTGAGTCACGCG
Data returned: 5.67

These entries and their values trace back to paper PMC3154423.
